The entries below are paired with their reported inhibition.
# Test system: Epidermal growth factor receptor (Homo sapiens), P00533 [L861Q]
# Sequence (P00533 whole entry L861Q): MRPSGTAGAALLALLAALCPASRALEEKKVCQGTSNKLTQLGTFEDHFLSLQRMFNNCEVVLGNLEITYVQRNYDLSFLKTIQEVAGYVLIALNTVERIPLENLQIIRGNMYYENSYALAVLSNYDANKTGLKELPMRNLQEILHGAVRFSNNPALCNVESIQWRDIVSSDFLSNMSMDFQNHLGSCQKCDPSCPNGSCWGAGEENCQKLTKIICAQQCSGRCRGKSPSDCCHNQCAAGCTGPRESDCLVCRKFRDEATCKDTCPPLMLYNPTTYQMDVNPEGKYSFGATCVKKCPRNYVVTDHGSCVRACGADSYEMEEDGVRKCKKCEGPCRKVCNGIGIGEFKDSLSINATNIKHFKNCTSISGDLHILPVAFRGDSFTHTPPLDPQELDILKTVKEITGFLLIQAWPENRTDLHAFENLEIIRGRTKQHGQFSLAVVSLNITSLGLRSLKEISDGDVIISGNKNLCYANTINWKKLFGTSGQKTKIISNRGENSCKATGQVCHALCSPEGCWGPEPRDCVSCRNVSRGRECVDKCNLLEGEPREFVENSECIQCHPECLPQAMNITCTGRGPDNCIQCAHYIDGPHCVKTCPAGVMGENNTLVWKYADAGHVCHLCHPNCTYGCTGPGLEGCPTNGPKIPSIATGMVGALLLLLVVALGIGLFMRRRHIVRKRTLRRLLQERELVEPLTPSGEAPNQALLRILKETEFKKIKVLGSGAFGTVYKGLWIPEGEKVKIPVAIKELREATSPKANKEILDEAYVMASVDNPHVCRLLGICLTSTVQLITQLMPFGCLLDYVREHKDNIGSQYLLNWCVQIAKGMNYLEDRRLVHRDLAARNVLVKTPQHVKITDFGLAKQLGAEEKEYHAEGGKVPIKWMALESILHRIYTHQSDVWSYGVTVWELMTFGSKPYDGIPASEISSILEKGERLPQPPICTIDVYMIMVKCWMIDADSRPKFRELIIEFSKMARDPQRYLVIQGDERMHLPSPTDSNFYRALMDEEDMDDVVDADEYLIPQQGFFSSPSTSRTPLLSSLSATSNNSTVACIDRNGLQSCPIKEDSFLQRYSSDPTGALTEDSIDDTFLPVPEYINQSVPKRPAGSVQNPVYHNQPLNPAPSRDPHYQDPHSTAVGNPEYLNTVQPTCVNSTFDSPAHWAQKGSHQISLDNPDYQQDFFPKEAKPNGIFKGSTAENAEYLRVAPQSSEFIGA
# cond: at 0.1 µM
value-kind: inhibition (%)

INSERT INTO results (compound_smiles, value_kind, measurement) VALUES
  ('CC(C)(CO)CNC(=O)c1ccc2c(c1)/C(=N/Nc1ccc(S(N)(=O)=O)cc1)C(=O)N2', 'inhibition', -0.63),
  ('Clc1ccc(-c2nn3ncccc3c2-c2ccnc(Nc3ccccc3)n2)cc1', 'inhibition', 12),
  ('COC(=O)Nc1nc2ccc(Oc3ccc(NC(=O)Nc4cccc(Cl)c4)cc3)cc2[nH]1', 'inhibition', -0.21),
  ('CCNC(=O)O[C@H]1CN[C@H](C#Cc2cc3ncnc(Nc4ccc(OCc5cccc(F)c5)c(Cl)c4)c3s2)C1', 'inhibition', 37.6),
  ('CCN(CC)S(=O)(=O)c1ccc(OC)c(Nc2ncc(-c3ccccc3)o2)c1', 'inhibition', 3.42);
